Molecular target: Adenosine receptor A1 (Homo sapiens) (UniProt P30542)
Sequence (P30542 whole entry): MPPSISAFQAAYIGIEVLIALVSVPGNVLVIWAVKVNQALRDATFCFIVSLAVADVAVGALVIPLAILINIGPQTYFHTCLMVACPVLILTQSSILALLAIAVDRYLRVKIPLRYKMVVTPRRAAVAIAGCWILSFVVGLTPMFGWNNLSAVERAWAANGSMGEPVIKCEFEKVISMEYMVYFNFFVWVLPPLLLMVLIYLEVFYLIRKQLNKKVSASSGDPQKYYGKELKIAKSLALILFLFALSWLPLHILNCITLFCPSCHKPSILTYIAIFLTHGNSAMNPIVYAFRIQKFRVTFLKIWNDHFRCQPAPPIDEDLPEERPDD
Test: Percent response to 10 uM PD-81723 on CHO cells expressing human A1-adenosine receptor at 0.1 uM; An increase of cAmp content of cells
Type: functional, cell-based
quantity_measured: Response

Here's what some known entries look like.
molecule=Nc1sc2c(c1C(=O)c1ccc(I)cc1)CCC2 quantity_measured=Response endpoint_value="Increased cAMP"
molecule=Nc1sc2c(c1C(=O)c1ccc(Cl)cc1)CCC2 quantity_measured=Response endpoint_value="Increased cAMP"
molecule=Nc1sc2c(c1C(=O)c1ccc(Cl)cc1)CCN(CCc1ccc([N+](=O)[O-])cc1)C2 quantity_measured=Response endpoint_value="Increased cAMP"
molecule=CCOC(=O)CN1CCc2c(sc(N)c2C(=O)c2ccccc2)C1 quantity_measured=Response endpoint_value="Increased cAMP"
molecule=Cc1ccc(S(=O)(=O)N2CCc3c(sc(N)c3C(=O)c3ccccc3)C2)cc1 quantity_measured=Response endpoint_value="Increased cAMP"

Query :: What value of Response has been reported for the following compound? Nc1sc2c(c1C(=O)c1ccccc1)CCN(CCc1ccc([N+](=O)[O-])cc1)C2
Result :: Increased cAMP

Query :: Try the compound Nc1sc2c(c1C(=O)c1ccccc1)CCN(C(=O)OCc1ccccc1)C2
Result :: Increased cAMP
